Entries and their Ki values follow.
- target-of-assay: D(1A) dopamine receptor (Rattus norvegicus)
- Sequence (P18901 whole entry): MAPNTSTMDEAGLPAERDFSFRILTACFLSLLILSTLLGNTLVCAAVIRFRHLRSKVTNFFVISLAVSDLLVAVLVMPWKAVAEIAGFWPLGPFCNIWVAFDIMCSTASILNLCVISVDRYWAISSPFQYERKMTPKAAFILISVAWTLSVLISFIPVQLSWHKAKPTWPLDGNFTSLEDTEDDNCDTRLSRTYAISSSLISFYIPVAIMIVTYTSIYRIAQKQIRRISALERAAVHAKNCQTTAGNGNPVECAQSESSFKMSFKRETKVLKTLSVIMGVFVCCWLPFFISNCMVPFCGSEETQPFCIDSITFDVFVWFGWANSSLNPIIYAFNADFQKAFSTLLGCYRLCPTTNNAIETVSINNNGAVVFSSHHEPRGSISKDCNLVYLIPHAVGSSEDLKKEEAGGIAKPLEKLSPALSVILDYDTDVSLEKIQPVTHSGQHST
- experiment-summary: Binding Affinity was determined against Dopamine receptor D1 in rat striatal membranes using [3H]- SCH 23390 radioligand.
Please respond with the number in µM and leave the unit unwritten.

Example compounds with recorded Ki:
• CCCN1CCc2c(Br)ccc(O)c2C1Cc1cc(OC)ccc1Br (configuration not stated) = 7.41
• COc1cc(Br)c2c(c1)CCN(C)C2Cc1ccccc1O (configuration not stated) = 11.7
• CCN1CCc2c(Br)ccc(O)c2C1Cc1cc(OC)ccc1Br (configuration not stated) = 1.55

Reported Ki for COc1ccc(Br)c(CC2c3c(O)ccc(Br)c3CCN2C)c1 (configuration not stated) : what is it?
0.389

Field request: Ki | item: CCN1CCc2cccc3c2C1Cc1cc(O)ccc1O3 (configuration not stated)
6.76

Report Ki for CCN1CCc2cc(OC)cc(Br)c2C1Cc1ccccc1O (configuration not stated) please.
3.02

Find the recorded Ki belonging to CCN1CCc2cc(O)cc3c2C1Cc1ccccc1O3 (configuration not stated) and report it.
3.47

Query: Ki; subject: CN1CCc2cccc3c2C1Cc1cc(O)ccc1O3 (configuration not stated)
4.79

----------
Recorded pKi by entry
- target-of-assay: D(1A) dopamine receptor (Rattus norvegicus)
- experiment-summary: Binding Affinity was determined against Dopamine receptor D1 in rat striatal membranes using [3H]- SCH 23390 radioligand.
The read-out pKi is expressed as -log10 of concentration in moles per litre.

Study these solved cases before continuing.
• CCCN1CCc2c(Br)ccc3c2C1Cc1cc(OC)ccc1O3 (stereo not given) = 5.61
• COc1ccc2c(c1)CC1c3c(ccc(Br)c3CCN1C)O2 (stereo not given) = 5.12

Which measured pKi value corresponds to COc1cc2c3c(c1)Oc1ccccc1CC3N(C)CC2 (stereo not given) ?
5.37

Item under review: CCN1CCc2c(Br)ccc3c2C1Cc1cc(OC)ccc1O3 (stereo not given) . Reported pKi?
5.46

Dear colleague, I am looking for the recorded pKi of the following compound: COc1cc(Br)cc2c1C(Cc1ccccc1O)N(C)CC2 (stereo not given)
5.77

Recorded pKi for CCN1CCc2cc(Br)cc(OC)c2C1Cc1ccccc1O (stereo not given) , please?
5.25

Need pKi, item CCCN1CCc2cccc3c2C1Cc1cc(OC)ccc1O3 (stereo not given)
5.41

Please look up its pKi: COc1ccc2c(c1)CC1c3c(cccc3O2)CCN1C (stereo not given)
5.28

Would you kindly share the measured pKi for CN1CCc2cc(O)cc3c2C1Cc1ccccc1O3 (stereo not given) ?
5.54

----------
- target-of-assay: D(2) dopamine receptor (Rattus norvegicus, UniProt P61169)
- Sequence (P61169 whole entry): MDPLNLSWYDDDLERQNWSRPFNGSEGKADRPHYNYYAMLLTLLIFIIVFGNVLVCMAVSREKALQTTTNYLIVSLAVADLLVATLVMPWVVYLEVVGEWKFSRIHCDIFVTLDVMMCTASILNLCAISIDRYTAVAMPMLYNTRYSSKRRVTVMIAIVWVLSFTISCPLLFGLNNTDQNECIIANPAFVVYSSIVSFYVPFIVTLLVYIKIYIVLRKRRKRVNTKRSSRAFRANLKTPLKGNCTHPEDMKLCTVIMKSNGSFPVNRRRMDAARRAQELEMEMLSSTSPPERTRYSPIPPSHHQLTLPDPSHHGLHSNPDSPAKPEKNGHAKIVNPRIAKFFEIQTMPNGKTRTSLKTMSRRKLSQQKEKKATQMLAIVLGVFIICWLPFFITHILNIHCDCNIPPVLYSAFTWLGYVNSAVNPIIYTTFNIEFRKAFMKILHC
- experiment-summary: Binding Affinity was determined against Dopamine receptor D2 in rat striatal membranes using [3H]- spiperone radioligand.
Each record here notes measured Ki.

* CCCN1CCc2c(Br)ccc3c2C1Cc1cc(OC)ccc1O3 (configuration not stated) | > 10 µM
* CCN1CCc2c(Br)ccc(O)c2C1Cc1cc(OC)ccc1Br (configuration not stated) | > 10 µM
* CCN1CCc2cccc3c2C1Cc1cc(O)ccc1O3 (configuration not stated) | > 10 µM

Look up Ki for this molecule: CCN1CCc2c(Br)ccc3c2C1Cc1cc(OC)ccc1O3 (configuration not stated)
> 10 µM

Fill in: Ki of CCCN1CCc2cc(O)cc3c2C1Cc1ccccc1O3 (configuration not stated) is ___
> 10 µM

Ki for CCCN1CCc2cccc3c2C1Cc1cc(O)ccc1O3 (configuration not stated) ?
> 10 µM

Return reported Ki; argument: CCCN1CCc2cccc3c2C1Cc1cc(OC)ccc1O3 (configuration not stated)
> 10 µM

Query: Ki; subject: COc1cc(Br)cc2c1C(Cc1ccccc1O)N(C)CC2 (configuration not stated)
1.82 µM

What value of measured Ki is listed for CN1CCc2cc(O)cc3c2C1Cc1ccccc1O3 (configuration not stated) ?
0.275 µM

What value of Ki has been recorded for this entry: CCCN1CCc2c(Br)ccc(O)c2C1Cc1cc(OC)ccc1Br (configuration not stated)
> 10 µM

Need Ki of COc1cc2c3c(c1)Oc1ccccc1CC3N(C)CC2 (configuration not stated) , thanks.
9.33 µM

Recorded Ki for COc1ccc(Br)c(CC2c3c(O)ccc(Br)c3CCN2C)c1 (configuration not stated) , please?
> 10 µM
